meta.source: ChEMBL document CHEMBL1641569

Assignment: determine reported IC50 for the given compounds.
System: T98G
measurement.notes: Cytotoxicity against human T98G cells after 72 hrs by SRB assay
Type: functional, cell-based
Please provide the amount together with its unit, number first.

Ask: Provide one value: measured IC50 of `O=c1c(-c2ccc(O)cc2)coc2cc(O)cc(O)c12`
Reply: 89.4 µM

Ask: Provide one value: measured IC50 of `CC(=O)O[C@@H]1C=C[C@H](OCCCOc2cc(O)c3c(=O)c(-c4ccc(O)cc4)coc3c2)O[C@H]1C`
Reply: 16.7 µM

====

System: HCT-116
measurement.notes: Inhibition of mitosis in human HCT116 cells assessed as mitotic index at 20 uM after 24 hrs by fluorescence assay
Format: functional
Assignment: determine reported Activity for the given compounds.

Ask: Provide one value: measured Activity of `O=c1c(-c2ccc(O)cc2)coc2cc(OCCCCCO)cc(O)c12`
Reply: 3

Ask: Provide one value: measured Activity of `O=c1c(-c2ccc(O)cc2)coc2cc(O)cc(O)c12`
Reply: 1.8

Ask: Provide one value: measured Activity of `CC(=O)O[C@@H]1C=C[C@H](OCCOc2cc(O)c3c(=O)c(-c4ccc(O)cc4)coc3c2)O[C@H]1C`
Reply: 1.3

Ask: Provide one value: measured Activity of `CC(=O)OC[C@H]1O[C@H](OCCCCCOc2cc(O)c3c(=O)c(-c4ccc(O)cc4)coc3c2)C=C[C@@H]1OC(C)=O`
Reply: 5.2

Ask: Provide one value: measured Activity of `CC(=O)O[C@@H]1C=C[C@H](OCCCOc2cc(O)c3c(=O)c(-c4ccc(O)cc4)coc3c2)O[C@H]1C`
Reply: 13.2

Ask: Provide one value: measured Activity of `CC(=O)O[C@@H]1C=C[C@H](OCCCCCOc2cc(O)c3c(=O)c(-c4ccc(O)cc4)coc3c2)O[C@H]1C`
Reply: 3.5
